# System: CAKI-1 renal
# test: NCI-60 one-dose screen, 48 h (100 = growth as untreated, 0 = no growth, -100 = all killed)
# experimental-context: 10 µM
Compounds without any hit were thinned out: in the full panel of roughly 83,000, 20% have a hit. Activity calls are given as the source filed them. Rule for the calls: active = growth percent below 10; inactive = the rest.
readout-name: growth

Some solved entries appear below for comparison.
O=C(Nc1cccc(Cl)c1)Nc1cc2ncncc2cc1OCc1cccc(F)c1 = 14.6% (inactive)
NC(=O)C12C(=O)NC(=O)C1(C(=O)O)C21CCCC1 (stereo not given) = 112% (inactive)

# return growth for each item in the list
1. O=C(OCc1ncc(-c2ccc(C(F)(F)F)cc2)c(NC2CCCCCC2)n1)c1c(F)c(F)c(F)c(F)c1F
2. CC(=O)OC1Oc2ccccc2-c2oc(=O)c(-c3ccc(F)cc3)cc21 (stereo not given)
3. COc1ccc(-c2oncc2-c2cc(OC)c3c(c2)OCO3)cc1
4. C[n+]1c(/C=C/c2c[nH]c3ccccc23)ccc2ccccc21
5. CN(C)c1ccc2c(c1)OC(N)=C(C#N)C2c1ccc2c(c1)CCO2 (stereo not given)

["89.6% (inactive)", "93.1% (inactive)", "22.9% (inactive)", "88.8% (inactive)", "37% (inactive)"]

Look at each molecule and report its growth.
1. COc1ccc(-c2cc(/C=C3\C(=O)Nc4cc(Cl)ccc43)[nH]n2)cc1OC
2. C[C@@H]1N=C(c2ccc(Br)cc2)Nc2nc3ccccn3c2C1=O

63.9% (inactive)
44.1% (inactive)

Reported growth of C=C1C(=O)O[C@H]2[C@H]1CC/C(COC(=O)OCCCCCOC(=O)OC/C1=C/CC[C@@]3(C)O[C@H]3[C@H]3OC(=O)C(=C)[C@@H]3CC1)=C\CC[C@@]1(C)O[C@@H]21 : -68.5% (active)

###

# Tested on: A498 renal
# test: NCI-60 one-dose screen, 48 h (100 = growth as untreated, 0 = no growth, -100 = all killed)
# experimental-context: 10 µM
The panel holds about 83,000 compounds, 20% with a hit somewhere; the sample as a whole holds those more often.
Please provide measured growth for the entries that follow.
Numbers only, in %.

Known growth results, listed for orientation:
COc1ccc(OC)c([N+](=O)[O-])c1C=O = 59.2
O=C1/C(=C/c2ccc(O)cc2O)N=C2SCCCN12 = 90.1
COc1ccc(C2CC(c3ccc(-c4ccccc4)cc3)=NN2c2ccc(S(N)(=O)=O)cc2)cc1 (centres undefined) = 98
COc1ccc(C(=O)/C=C/c2cc(-c3ccc4c(c3)OCO4)n[nH]2)cc1OC = 41.9
CNCCCNCCCN1C(=O)c2ccc3c4c(ccc(c24)C1=O)C(=O)N(CCCNCc1ccccc1OC)C3=O = 28.8

Batch: growth for all items listed.
1. O=C(O)c1ccccc1C(=O)c1cccc2c(F)cccc12
2. COc1ccc2oc(=O)cc(C3c4ccc([nH]4)C(c4cc(=O)oc5ccc(OC)cc45)c4ccc([nH]4)C(c4cc(=O)oc5ccc(OC)cc45)c4ccc([nH]4)C(c4cc(=O)oc5ccc(OC)cc45)c4ccc3[nH]4)c2c1 (centres undefined)
3. CC(C)(C)c1ccc(OCCCCCCN2CCNCC2)cc1
4. COc1cc(CSc2nc3ccc(C)cc3c(=O)n2Cc2ccccc2)cc(OC)c1OC

1: 130; 2: -17.4; 3: 86.1; 4: 7.01

###

# Tested on: RPMI-8226 leukemia
# test: NCI-60 one-dose screen, 48 h
# experimental-context: 10 µM
About 83,000 compounds went through this panel and 20% of them were active in at least one assay; those are over-represented in the sample as a whole. Active and inactive are the calls of the source. How the source made its calls: active means growth percent below 10; inactive means the rest.
Result category, one only: active, inactive

As a guide, the following entries are already answered.
COc1ccc(C(C)=O)cc1N1C(=O)C2C(C1=O)C1(c3ccccc3)C(=O)C2(c2ccccc2)C(c2ccc(C)cc2)=C1c1ccc(C)cc1 (stereo unspecified) = inactive
COc1cc(N=C2C(=O)N(Cc3ccccc3)c3ccccc32)cc(OC)c1OC = inactive
CCOC(=O)c1c(Cl)c2c(n1Cc1cccc(OC)c1)-c1oncc1CC2 = inactive
O=C(/C=C/c1nnc2n(Cc3ccccc3)c(=O)c3c4c(sc3n12)CCCC4)c1ccccc1 = active
CNCCCNCCCN1C(=O)c2ccc3c4c(ccc(c24)C1=O)C(=O)N(CCCNCc1ccccc1OC)C3=O = active

Which result was noted for this compound in the test: CC(=O)n1nc(C(=O)OC(C)(C)C)c2cc(F)c(F)cc21
inactive

Kindly provide the recorded test outcome for the following compound: COc1ccc(C(=O)c2sc3nc(-c4cccs4)ccc3c2N)cc1OC
inactive

Please state the recorded outcome for this compound: CN(C1c2ccccc2Oc2ccccc21)S(=O)(=O)c1cc(Cl)ccc1Cl
inactive

Which result was noted for this compound in the test: N#Cc1ccc(-n2cnc(NC(=O)[C@H]3CCN(C#N)C3)c2)cc1
inactive

Assay outcome for CCOC(=O)Nc1ccc2c(c1)C(=O)N(CC)c1ccccc1O2 : what was it?
inactive

Call for entry O=C(COc1ccc(-c2nc3ccccc3[nH]2)cc1)N=Nc1c(O)[nH]c2ccccc12 :
inactive

Could you kindly confirm the outcome this assay logged for COc1ccc(-c2csc(NC(=O)CO[N+](=O)[O-])n2)cc1 ?
inactive

Tell me the recorded outcome of this test for O=C(O)c1cc(C(F)(F)F)cc(C(F)(F)F)c1 .
inactive

Write down the call the test reported for this compound. Item: Cc1cc(C)c(C(=O)OC(C)CNC2CCCCC2)c(C)c1 (stereo unspecified)
inactive

Name the outcome recorded for O=C(NCCc1nccs1)c1cnc2c(S)cccc2c1 in the assay.
inactive

###

# Tested on: SF-539 CNS
# test: NCI-60 one-dose screen, 48 h
# experimental-context: 10 µM
This is part of a sample that, as a whole, favours compounds with a hit. Of some 83,000 tested, about 20% had one in any assay. Activity calls are given as the source filed them. How the source made its calls: active means growth percent below 10; inactive means the rest.
Respond using exactly one of the listed classes: T = active, F = inactive

Previously resolved entries follow.
COc1ccc2c(=O)cc(C(Cl)(Cl)Cl)oc2c1 = T
COc1ccc(-c2cn[nH]c2-c2cc(OC)c(OC)c(OC)c2)cc1 = T
Cc1cc(C)c(/C=C2\C(=O)Nc3ccc(NC(=O)CCCCCCC(=O)NO)cc32)[nH]1 = F
COC(=O)[C@]12CC[C@@H](C)[C@H](C)[C@@H]1C1=CC[C@@H]3[C@@]4(C)CC(=O)[C@H](O)[C@@](C)(CO)[C@@H]4C(=O)C[C@@]3(C)[C@]1(C)CC2 = F
Cc1[nH]nc2c(=S)[nH]c(=O)[nH]c12 = F

Recorded test outcome, item COc1ccc(OC)c([N+](=O)[O-])c1C=O
F

For this compound, state the assay outcome: COc1ccccc1Cn1cc2c(c1-c1ccccc1)CCc1cnoc1-2
F

###

# Tested on: LOX IMVI melanoma
# test: NCI-60 one-dose screen, 48 h (100 = growth as untreated, 0 = no growth, -100 = all killed)
# experimental-context: 10 µM
This is part of a sample that, as a whole, favours compounds with a hit. Of some 83,000 tested, about 20% had one in any assay. Activity calls are given as the source filed them. The calls were made as follows: active = growth percent below 10; inactive = the rest.
readout-name: growth

// worked examples, growth included
COC(=O)C1(C(=O)OC)C2C(=O)C3C(C21)C3(C(=O)OC(C)(C)C)C(=O)OC(C)(C)C (stereo unspecified) = 103% (inactive)
Cn1c(N)c(N=Cc2ccccc2)c(=O)n(C)c1=O = 104% (inactive)
NS(=O)(=O)c1ccc(N2N=C(c3ccc(-c4ccccc4)cc3)CC2c2ccc(Cl)cc2)cc1 (stereo unspecified) = 87.2% (inactive)
Nc1c(C(=O)Nc2ccccc2F)sc2nc3c(cc12)C(=O)CCC3 = 54.2% (inactive)
COc1ccc(C2=Cc3ccc(OC(C)=O)cc3OC2)cc1 = 82.7% (inactive)

Hi! Can you tell me growth for each of these molecules?
1. Cc1ccc(-n2nnc3c(sc4ccccc43)c2=O)cc1
2. CCOc1nc(-c2ccccc2)cc2c(O)c(C(=O)N/N=C/c3ccc(OC)cc3)[nH]c(=O)c12
3. Clc1cc(Cl)c(OCCCCCCN2CCNCC2)c(Cl)c1
4. Nc1ccc(Sc2ccc3c4c2cccc4c(=O)n2c4ccccc4nc32)cc1
5. Oc1ccc(/C=N\Nc2ccccn2)c(O)c1
6. COc1ccc(C(=O)/C=C/c2cc(-c3ccc(OC)c(OC)c3)n[nH]2)cc1OC

39.3% (inactive)
114% (inactive)
-66.2% (active)
29.2% (inactive)
-6.3% (active)
-86.8% (active)

###

# Tested on: HCC-2998 colon
# test: NCI-60 one-dose screen, 48 h
# experimental-context: 10 µM
The panel holds about 83,000 compounds, 20% with a hit somewhere; the sample as a whole holds those more often. Calls of active or inactive are those of the source. How the source made its calls: active means growth percent below 10; inactive means the rest.
One label from this list, please: true (active), false (inactive)

Use these answered entries as a reference point.
NC(=O)c1ccc(Br)o1 = false
COc1cc(-c2nc3ccc(C)cc3[nH]2)ccc1OCc1nnc(-c2ccc(CC(C)C)cc2)o1 = false
CC(C)(C)CC(C)(C)c1ccc(O)c(Cc2ccc(Cl)cc2Cl)c1 = true

I would be grateful if you could indicate the recorded call for Nc1c(CNCc2nnn(Cc3ccccc3)c2N)nnn1Cc1ccccc1 .
false

Name the outcome recorded for N#C/C(=C/c1cc([N+](=O)[O-])ccc1Cl)C(N)=O in the assay.
false

Any idea what this test logged for COC1OC2COC(c3ccccc3)OC2C(=O)C1NC(=O)c1ccccc1 (stereo unspecified) ?
false

Source: PubChem BioAssay (NCI)
